Tested on: SH-SY5Y cells
assay-method-text: Nuclear count from microscopy images (cellular growth and toxicity); note: reference of the scale not given here
experimental-parameters: PKIS2 primary screening
Give 1 (yes) when the value for Nuclear Count is at least 100. Give 0 (no) when it is less.

- compound: "O=C(Nc1n[nH]c2cc(-c3ccco3)ccc12)C1CC1"
  classification: "1 (yes)"
- compound: "Cl.Cl.NC[C@H](Cc1ccc(C(F)(F)F)cc1)NC(=O)c1cc(Br)c(-c2ccnc3[nH]ccc23)s1 [UNC10225108A]"
  classification: "1 (yes)"
- compound: "Cl.NS(=O)(=O)c1cccc(Nc2cc(-c3ccc(F)cc3)n[nH]2)c1 [UNC10112764A]"
  classification: "0 (no)"
- compound: "Cl.c1ccc(-c2ccc3c(Nc4ccc5[nH]ccc5c4)ccnc3c2)nc1 [UNC10225345A]"
  classification: "0 (no)"
- compound: "c1ccc(-c2ccnc3[nH]ccc23)cc1 [UNC10225337A]"
  classification: "1 (yes)"
- compound: "Fc1ccc(-c2ncn(CCCN3CCOCC3)c2-c2cccnc2)cc1 [UNC10225320A]"
  classification: "1 (yes)"
- compound: "COc1cccc(NC(=O)NC2CCN(c3ccnc(Nc4ccc(F)cc4)n3)C2)c1 (centres unmarked)"
  classification: "1 (yes)"
- compound: "CCn1c(-c2ccncc2)nc2cnccc21 [UNC10225204A]"
  classification: "1 (yes)"
- compound: "Cl.Cl.NCC(C(=O)Nc1cc(Br)c(-c2ccnc3[nH]ccc23)s1)c1ccccc1 (centres unmarked) [UNC10225027A]"
  classification: "1 (yes)"
- compound: "CCn1c(-c2nonc2N)nc2c(-c3ccccc3)ncc(OCCCN)c21.O=C(O)C(F)(F)F.O=C(O)C(F)(F)F [UNC10225047A]"
  classification: "1 (yes)"
- compound: "CN(C)c1ncnc2nc[nH]c12 [UNC10243858A]"
  classification: "0 (no)"
- compound: "NCCC(NC(=O)c1cc(Br)c(-c2ccnc3[nH]ccc23)s1)c1ccccc1.O=C(O)C(F)(F)F.O=C(O)C(F)(F)F (centres unmarked) [UNC10225503A]"
  classification: "1 (yes)"
- compound: "Cn1cncc1C(=O)NC1CCN(c2ccnc(Nc3ccc(F)cc3)n2)C1 (centres unmarked)"
  classification: "0 (no)"
- compound: "CS(=O)(=O)CCNCc1nc(-c2ccc3ncnc(Nc4ccc5c(cnn5Cc5ccccc5)c4)c3c2)cs1.Cl.Cl [UNC10225115A]"
  classification: "1 (yes)"
- compound: "COc1ccc(CNC(=O)NC2CCN(c3ccnc(Nc4ccc(F)cc4)n3)CC2)cc1"
  classification: "0 (no)"
- compound: "COc1ccc(Nc2nccc(N3CCC(NC(=O)c4cccc(C#N)c4)C3)n2)cc1 (centres unmarked)"
  classification: "1 (yes)"

* * *

Tested on: SH-SY5Y cells
experimental-parameters: human, SH-SY5Y cells, 24 h, 1 µM
Give YES when the value for Nuclear Count is at least 100. Give NO when it is less.

- molecule: "O=C1NC(=O)C(c2ccccc2Cl)=C1Nc1cccc(Cl)c1 [UNC10225092A]"
  target-or-test-system: "SH-SY5Y cells"
  classification: "YES"
- molecule: "COc1ccccc1-c1ccc2c(NC(=O)C3CC3)n[nH]c2n1"
  target-or-test-system: "SH-SY5Y cells"
  classification: "YES"
- molecule: "Nc1n[nH]c2cnc(-c3ccccc3)cc12"
  target-or-test-system: "SH-SY5Y cells"
  classification: "YES"
- molecule: "O=C(Nc1n[nH]c2nc(-c3ccccc3)c(Cl)cc12)C1CC1"
  target-or-test-system: "SH-SY5Y cells"
  classification: "NO"
- molecule: "O=C(Nc1n[nH]c2nc(-c3ccccc3)c(Br)cc12)C1CC1"
  target-or-test-system: "SH-SY5Y cells"
  classification: "NO"
- molecule: "O=C(Nc1n[nH]c2cc(-c3cccc(F)c3)ccc12)C1CC1"
  target-or-test-system: "SH-SY5Y cells"
  classification: "NO"
- molecule: "CSc1ccc(NC2=C(c3ccccc3Cl)C(=O)NC2=O)cc1 [UNC10225346A]"
  target-or-test-system: "SH-SY5Y cells"
  classification: "YES"
- molecule: "O=C(Nc1n[nH]c2nc(-c3nccs3)c(Br)cc12)C1CCCC1"
  target-or-test-system: "SH-SY5Y cells"
  classification: "NO"

* * *

System: SH-SY5Y cells
assay-method-text: AK (adenylate kinase) release ToxiLight cytotoxicity assay; note: reference of the scale not given here
experimental-parameters: PKIS2 primary screening
True if AK is below 100. False if not; exact matches included in False.

- molecule: "COc1cccc(-c2cc(-c3c[nH]nc3-c3ccccn3)ccn2)c1 [UNC10225448A]"
  target-or-test-system: "SH-SY5Y cells"
  classification: "False"
- molecule: "Cn1cncc1C(=O)NC1CCN(c2ccnc(Nc3ccc(F)cc3)n2)C1 (centres unmarked)"
  target-or-test-system: "SH-SY5Y cells"
  classification: "False"
- molecule: "CCOc1nccc(-c2c(-c3ccc(F)cc3)ncn2C2CCNCC2)n1 [UNC10225194A]"
  target-or-test-system: "SH-SY5Y cells"
  classification: "False"
- molecule: "O=c1cc(N2CCOCC2)nc2n(Cc3ccccc3F)ccn12 [UNC10225231A]"
  target-or-test-system: "SH-SY5Y cells"
  classification: "False"
- molecule: "Cc1ccc(NC(=O)c2cccc(C#N)c2)cc1-c1ccc(C(=O)Nc2ccncc2)cc1 [UNC10225263A]"
  target-or-test-system: "SH-SY5Y cells"
  classification: "True"

* * *

Test system: SH-SY5Y cells
experimental-parameters: human, SH-SY5Y cells, 24 h, 1 µM
Parameter AK: see the listing below.
reported-metric: AK

- molecule: "COc1ccc(C2=C(Nc3cccc(O)c3)C(=O)NC2=O)cc1 [UNC10225299A]"
  assay-result: 102.75
- molecule: "O=C1NC(=O)C(c2ccccc2)=C1Nc1cccc(O)c1 [UNC10225065A]"
  assay-result: 106.60
- molecule: "O=C(Nc1n[nH]c2nc(-c3ccccc3)ccc12)C1CC1"
  assay-result: 67.50
- molecule: "O=C(Nc1n[nH]c2nc(-c3ccccc3)c(Cl)cc12)C1CC1"
  assay-result: 83.64
- molecule: "O=C(Nc1n[nH]c2cc(-c3cccs3)ccc12)C1CC1"
  assay-result: 71.30

* * *

System: endogenous TFE3
assay-method-text: TFE3 nuclear translocation, immunocytochemistry high-content imaging
Format: cell-based
experimental-parameters: PKIS2 primary screening
reported-metric: TFE3 % (%)

- molecule: "CCCc1ccc(S(=O)(=O)NC2CCN(c3ccnc(Nc4ccc(F)cc4)n3)C2)cc1 (stereo not shown)"
  reported-metric: "TFE3 %"
  assay-result: 11.31
- molecule: "CNc1ncnc2[nH]ncc12 [UNC10243862A]"
  reported-metric: "TFE3 %"
  assay-result: 11.00
- molecule: "CCNCC(Cc1ccccc1)NC(=O)c1cc(Br)c(-c2ccnc3[nH]ccc23)s1.Cl.Cl (stereo not shown) [UNC10225436A]"
  reported-metric: "TFE3 %"
  assay-result: 35.73
- molecule: "COc1cc(Nc2nccc(N3CCC(NC(=O)Nc4cc(C)ccc4C)C3)n2)cc(OC)c1OC (stereo not shown)"
  reported-metric: "TFE3 %"
  assay-result: 14.40
- molecule: "CSc1nn2c(=O)cc(N3CCOCC3)nc2n1Cc1cccc(C(F)(F)F)c1C [UNC10225417A]"
  reported-metric: "TFE3 %"
  assay-result: 6.63
- molecule: "O=C(c1ccc(-c2cc(-c3c[nH]nc3-c3ccccn3)ccn2)cc1)N1CCCC1 [UNC10225230A]"
  reported-metric: "TFE3 %"
  assay-result: 11.53
- molecule: "Cc1ccc(NC(=O)Nc2cc(C(C)(C)C)nn2-c2ccccc2)cc1 [UNC10225353A]"
  reported-metric: "TFE3 %"
  assay-result: 7.76
- molecule: "Cc1cc(N2Cc3ccccc3C2)nc(Nc2ccc(S(=O)(=O)N3CCOCC3)cc2)n1"
  reported-metric: "TFE3 %"
  assay-result: 8.23
- molecule: "N#CCc1ccc(Nc2nccc(Nc3ccc(Oc4ccccc4)cc3)n2)cc1"
  reported-metric: "TFE3 %"
  assay-result: 15.01
- molecule: "O=c1cc(N2CCOCC2)nc2n(Cc3ccc(F)c(Cl)c3)ccn12 [UNC10225343A]"
  reported-metric: "TFE3 %"
  assay-result: 7.68

* * *

Test system: SH-SY5Y cells
assay-method-text: AK (adenylate kinase) release ToxiLight cytotoxicity assay; note: reference of the scale not given here
experimental-parameters: PKIS2 primary screening
Parameter AK: see the listing below.
reported-metric: AK

- compound: "COc1nccc(-c2c(-c3ccc(F)cc3)ncn2CCCN2CCOCC2)n1 [UNC10225213A]"
  reported-metric: "AK"
  assay-result: 78.43
- compound: "CN(C(=O)c1ccc(-c2cc(-c3c[nH]nc3-c3ccccn3)ccn2)cc1)C1CCOCC1 [UNC10225473A]"
  reported-metric: "AK"
  assay-result: 101.87
- compound: "COc1cc(Nc2nccc(N3CCC(NC(=O)Nc4ccc5c(c4)OCO5)C3)n2)cc(OC)c1OC (stereo not shown) [GSK1379766]"
  reported-metric: "AK"
  assay-result: 118.87
- compound: "O=C(Nc1ccc2c(c1)OCO2)NC1CCN(c2ccnc(Nc3ccc(F)cc3)n2)C1 (stereo not shown) [GSK1379724]"
  reported-metric: "AK"
  assay-result: 104.22

Entry source: paper PMC9851200
